# TARGET SYSTEM: T1, HaloTag-ATRX ADD domain (163-292)
# T1 chain: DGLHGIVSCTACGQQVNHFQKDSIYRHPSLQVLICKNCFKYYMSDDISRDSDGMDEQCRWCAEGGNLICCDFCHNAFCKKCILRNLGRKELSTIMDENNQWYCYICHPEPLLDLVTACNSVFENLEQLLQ
# ASSAY: peptide microarray binding signal (635 nm), min-max normalized on array (fraction of array maximum); higher = stronger binding
# CONDITION CONTEXT: peptide region: Unmod H1 variant; binder concentration: 500 nM
MEASURED ATTRIBUTE: peptide microarray binding signal
Reply with the value as a number alone.

Can you share its peptide microarray binding signal? I mean this binder: KAKKPAATRKSSK [Unmod H1 variant K A K K P A A T R K S S K]
0.0133

Can you share its peptide microarray binding signal? I mean this binder: KPKATPVKKAKKK [Unmod H1 variant K P K A T P V K K A K K K]
0.0124

Can you share its peptide microarray binding signal? I mean this binder: ASGSFKLNKKAAS [Unmod H1 variant A S G S F K L N K K A A S]
0.00791

Can you share its peptide microarray binding signal? I mean this binder: TENSTSAPAAKPK [Unmod H1 variant T E N S T S A P A A K P K]
0.0173

Can you share its peptide microarray binding signal? I mean this binder: SFRLAKSDEPKKS [Unmod H1 variant S F R L A K S D E P K K S]
0.0223

Can you share its peptide microarray binding signal? I mean this binder: TPKKSAKKTPKKA [Unmod H1 variant T P K K S A K K T P K K A]
0.0104

Can you share its peptide microarray binding signal? I mean this binder: TKTKATGASKKLK [Unmod H1 variant T K T K A T G A S K K L K]
0.0136

Can you share its peptide microarray binding signal? I mean this binder: PKKAKAAKPKKAP [Unmod H1 variant P K K A K A A K P K K A P]
0.01
